- assay_info: Binding affinity to Ferric ion assessed as retention ratio by measuring compound detected in elution fraction/total compound detected at 2.55 umol by immobilized metal-ion affinity chromatography
- experimental_context: dose 2.55 µmol
In this section, each of the compounds is paired with its reported Ratio.
The answer should be a number; do not append a unit.

Guide cases for Ratio, answers given:
In [3]: df
Out[3]:
                  compound_structure_string  test_value
0  C[C@H](N[C@@H](CCc1ccccc1)C(=O)O)C(=O)N1CCC[C@H]1C(=O)O           0
1  Nc1ccccc1NC(=O)c1ccc(CNC(=O)OCc2cccnc2)cc1           0
2          Cc1ccc(Cl)c(Nc2ccccc2C(=O)O)c1Cl           0
3  COc1c(N2C[C@@H]3CCCN[C@@H]3C2)c(F)cc2c(=O)c(C(=O)O)cn(C3CC3)c12        0.73

The record that follows has no Ratio shown yet.
Notebook: `Nc1ccc(C(=O)O)c(O)c1` , Ratio read as 0.51
